experiment: logP (acidic, pH 2.3, and neutral); format: physicochemical; details: pH 2.3, acidic; read-out: logP sauer
Recorded logD values for a group of compounds are listed next.
MEASUREMENT_TYPE: logD

[[record]]
compound = "CCN(C)C=Nc1cc(C)c(Oc2ccc(Cl)c(I)c2)cc1C [Nr. 25]"
measured_result = 2.29

[[record]]
compound = "Cc1cc(Oc2cc(F)cc(I)c2)c(C)cc1N=CN1CCCCC1 [Nr. 21]"
measured_result = 2.6

[[record]]
compound = "Cc1cc(Oc2cc(Cl)cc(Br)c2)c(C)cc1N=CN(C)C(C)C [Nr. 7]"
measured_result = 2.7

[[record]]
compound = "CCN(C)C=Nc1cc(C)c(Oc2ccc(F)c(Br)c2)cc1C [Nr. 23]"
measured_result = 2.29

[[record]]
compound = "CCN(C)C=Nc1cc(C)c(Oc2cc(F)cc(Br)c2)cc1C [Nr. 3]"
measured_result = 2.29


* * *

test: logP (acidic, pH 2.3, and neutral); assay type: physicochemical; details: neutral; read-out: logP neutr.
MEASUREMENT_TYPE: logP

[[record]]
molecule = "CCN(C)C=Nc1cc(C)c(Oc2ccc(Br)c(I)c2)cc1C"
measured_result = 6.1

[[record]]
molecule = "Cc1cc(Oc2cc(F)cc(I)c2)c(C)cc1N=CN1CCCCC1"
measured_result = 6.8

[[record]]
molecule = "Cc1cc(Oc2ccc(Cl)c(I)c2)c(C)cc1N=CN(C)C(C)C"
measured_result = 6.2

[[record]]
molecule = "Cc1cc(Oc2ccc(Cl)c(Br)c2)c(C)cc1N=CN1CCCC1"
measured_result = 6.6


* * *

assay: logP (acidic, pH 2.3, and neutral); assay type: physicochemical; details: neutral; read-out: logP neutr.
Recorded logP values for a group of compounds are listed next.
MEASUREMENT_TYPE: logP

[[record]]
compound = "Cc1cc(Oc2cc(Br)cc(Br)c2)c(C)cc1N=CN(C)C(C)C [Nr. 5]"
measurement_type = "logP"
measured_result = 6.4

[[record]]
compound = "CCCN(C)C=Nc1cc(C)c(Oc2cc(F)cc(Cl)c2)cc1C [Nr. 11]"
measurement_type = "logP"
measured_result = 6.1

[[record]]
compound = "CCN(C)C=Nc1cc(C)c(Oc2cc(F)cc(Br)c2)cc1C [Nr. 3]"
measurement_type = "logP"
measured_result = 5.8

[[record]]
compound = "Cc1cc(Oc2cc(F)cc(I)c2)c(C)cc1N=CN1CCCC1 [Nr. 22]"
measurement_type = "logP"
measured_result = 6.6

[[record]]
compound = "Cc1cc(Oc2ccc(Cl)c(Br)c2)c(C)cc1N=CN1CCCCC1 [Nr. 16]"
measurement_type = "logP"
measured_result = 6.9

[[record]]
compound = "CCN(C)C=Nc1cc(C)c(Oc2cc(Br)cc(Br)c2)cc1C [Nr. 4]"
measurement_type = "logP"
measured_result = 6

[[record]]
compound = "Cc1cc(Oc2cc(F)cc(Br)c2)c(C)cc1N=CN1CCCC1 [Nr. 13]"
measurement_type = "logP"
measured_result = 5.7

[[record]]
compound = "Cc1cc(Oc2cc(F)cc(Br)c2)c(C)cc1N=CN1CC(C)OC(C)C1 (stereo not shown) [Nr. 29]"
measurement_type = "logP"
measured_result = 5.8

[[record]]
compound = "Cc1cc(Oc2cc(F)cc(Cl)c2)c(C)cc1N=CN1CCCCC1 [Nr. 9]"
measurement_type = "logP"
measured_result = 6.3

[[record]]
compound = "Cc1cc(Oc2cc(Cl)cc(Br)c2)c(C)cc1N=CN(C)C(C)C [Nr. 7]"
measurement_type = "logP"
measured_result = 6.8


* * *

assay: logP (acidic, pH 2.3, and neutral); type: physicochemical; settings: neutral; read-out: logP neutr.
Recorded logP values for a group of molecules are listed next.
MEASUREMENT_TYPE: logP

[[record]]
molecule = "CCN(C)C=Nc1cc(C)c(Oc2cc(F)cc(Cl)c2)cc1C"
measurement_type = "logP"
measured_result = 5.6

[[record]]
molecule = "Cc1cc(Oc2cc(F)cc(Br)c2)c(C)cc1N=CN1CCCCC1"
measurement_type = "logP"
measured_result = 6.5

[[record]]
molecule = "CCN(C)C=Nc1cc(C)c(Oc2ccc(F)c(F)c2)cc1C"
measurement_type = "logP"
measured_result = 6.2

[[record]]
molecule = "CCCN(C)C=Nc1cc(C)c(Oc2ccc(Cl)c(Br)c2)cc1C"
measurement_type = "logP"
measured_result = 6.6

[[record]]
molecule = "Cc1cc(Oc2cc(F)cc(Cl)c2)c(C)cc1N=CN1CCCC1"
measurement_type = "logP"
measured_result = 5.6

[[record]]
molecule = "CCCN(C)C=Nc1cc(C)c(Oc2cc(F)cc(I)c2)cc1C"
measurement_type = "logP"
measured_result = 6.6

[[record]]
molecule = "CCCN(C)C=Nc1cc(C)c(Oc2cc(F)cc(Br)c2)cc1C"
measurement_type = "logP"
measured_result = 7.4

[[record]]
molecule = "CCN(C)C=Nc1cc(C)c(Oc2ccc(Cl)c(Br)c2)cc1C"
measurement_type = "logP"
measured_result = 6.1

[[record]]
molecule = "CCN(C)C=Nc1cc(C)c(Oc2ccc(F)c(Br)c2)cc1C"
measurement_type = "logP"
measured_result = 5.7

[[record]]
molecule = "CCN(C)C=Nc1cc(C)c(Oc2cc(Cl)cc(Br)c2)cc1C"
measurement_type = "logP"
measured_result = 6.4


* * *

Recorded logD values for a group of compounds are listed next.
test: logP (acidic, pH 2.3, and neutral); assay type: physicochemical; conditions: pH 2.3, acidic; read-out: logP sauer
MEASUREMENT_TYPE: logD

[[record]]
compound = "CCCN(C)C=Nc1cc(C)c(Oc2cc(F)cc(Cl)c2)cc1C [Nr. 11]"
measured_result = 2.39

[[record]]
compound = "CCN(C)C=Nc1cc(C)c(Oc2cc(F)cc(Cl)c2)cc1C [Nr. 8]"
measured_result = 2.21

[[record]]
compound = "CCCN(C)C=Nc1cc(C)c(Oc2cc(F)cc(I)c2)cc1C [Nr. 20]"
measured_result = 2.61

[[record]]
compound = "CCN(C)C=Nc1cc(C)c(Oc2ccc(F)c(F)c2)cc1C [Nr. 2]"
measured_result = 2.37

[[record]]
compound = "Cc1cc(Oc2ccc(Cl)c(Br)c2)c(C)cc1N=CN1CCCC1 [Nr. 18]"
measured_result = 2.56

[[record]]
compound = "Cc1cc(Oc2cc(F)cc(Br)c2)c(C)cc1N=CN1CCCCC1 [Nr. 12]"
measured_result = 2.55

[[record]]
compound = "CCN(C)C=Nc1cc(C)c(Oc2cc(Br)cc(Br)c2)cc1C [Nr. 4]"
measured_result = 2.5

[[record]]
compound = "Cc1cc(Oc2ccc(Cl)c(I)c2)c(C)cc1N=CN(C)C(C)C [Nr. 24]"
measured_result = 2.4

[[record]]
compound = "Cc1cc(Oc2cc(F)cc(I)c2)c(C)cc1N=CN1CCCC1 [Nr. 22]"
measured_result = 2.46

[[record]]
compound = "CCN(C)C=Nc1cc(C)c(Oc2ccc(Br)c(I)c2)cc1C [Nr. 27]"
measured_result = 2.67

[[record]]
compound = "CCCN(C)C=Nc1cc(C)c(Oc2ccc(Cl)c(Br)c2)cc1C [Nr. 17]"
measured_result = 2.64

[[record]]
compound = "Cc1cc(Oc2cc(F)cc(Br)c2)c(C)cc1N=CN1CC(C)OC(C)C1 (stereo not drawn) [Nr. 29]"
measured_result = 2.59


* * *

Recorded logD values for a group of compounds are listed next.
test: logP (acidic, pH 2.3, and neutral); assay type: physicochemical; settings: pH 2, pH 2,3; read-out: log P (pH 2,3)
MEASUREMENT_TYPE: logD

[[record]]
molecule = "CCN(C)C=Nc1cc(C)c(Oc2ccc(Cl)c(Cl)c2)cc1C"
measured_result = 2.48

[[record]]
molecule = "Cc1cc([N+](=O)[O-])c(C)cc1Oc1ccc(Cl)c(Cl)c1"
measured_result = 5.19

[[record]]
molecule = "Cc1cc(Oc2ccc(Cl)c(Cl)c2)c(C)cc1N"
measured_result = 3.51


Cited source: patent EP1969933A1
